# target-under-test: dipeptidyl peptidase-IV enzyme (DPP-4) (Homo sapiens, UniProt P27487)
# Sequence (P27487 29-766 limits assumed): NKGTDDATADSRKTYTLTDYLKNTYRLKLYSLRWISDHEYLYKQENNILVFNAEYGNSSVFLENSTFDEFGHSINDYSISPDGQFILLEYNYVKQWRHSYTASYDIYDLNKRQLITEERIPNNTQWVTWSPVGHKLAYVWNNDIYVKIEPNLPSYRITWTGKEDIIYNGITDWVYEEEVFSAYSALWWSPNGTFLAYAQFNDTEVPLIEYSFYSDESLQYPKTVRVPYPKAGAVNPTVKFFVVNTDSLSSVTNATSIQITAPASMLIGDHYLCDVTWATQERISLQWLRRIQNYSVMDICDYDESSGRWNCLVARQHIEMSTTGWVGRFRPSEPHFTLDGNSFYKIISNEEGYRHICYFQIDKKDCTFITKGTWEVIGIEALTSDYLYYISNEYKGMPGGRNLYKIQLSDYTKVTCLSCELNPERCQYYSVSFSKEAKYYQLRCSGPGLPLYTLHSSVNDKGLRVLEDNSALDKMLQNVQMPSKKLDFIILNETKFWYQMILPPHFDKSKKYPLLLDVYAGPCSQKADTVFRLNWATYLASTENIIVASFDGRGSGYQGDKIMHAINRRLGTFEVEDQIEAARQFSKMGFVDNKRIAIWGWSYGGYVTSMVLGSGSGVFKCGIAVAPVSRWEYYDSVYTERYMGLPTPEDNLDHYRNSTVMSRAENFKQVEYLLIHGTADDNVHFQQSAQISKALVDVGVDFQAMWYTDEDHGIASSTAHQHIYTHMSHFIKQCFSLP
Structures can show the parent of a compound that is named as a salt.
I'd appreciate it if you marked entries Satisfied when IC50 is lower than 8 nM and Not satisfied when it is not.

Solved cases below.
compound=CC(C)(O)Cn1ncc2c1CN([C@H]1CO[C@H](c3cc(F)c(F)cc3F)[C@@H](N)C1)C2 class_label="Not satisfied"
compound=CC(C)(O)Cn1ncc2c1CN([C@H]1CO[C@H](c3cc(F)ccc3F)[C@@H](N)C1)C2 class_label=Satisfied
compound="N[C@H]1C[C@@H](N2Cc3cn(CC(=O)O)nc3C2)CO[C@@H]1c1cc(F)ccc1F [Example 3, hydrochloride salt]" class_label="Not satisfied"

Input: Just wondering, is IC50 of N#Cc1[nH]nc2c1CN([C@H]1CO[C@H](c3cc(F)ccc3F)[C@@H](N)C1)C2 below 8 nM?
Output: Satisfied
